assay: HILIC, Waters ACQUITY UPLC BEH HILIC, 150 × 2.1 mm, 1.7 µm, 40 °C, 0.6 mL/min, estimated dead time 0.55 min; A: water + 0.1% formic acid + 20 mM ammonium formate, pH 3.5; B: acetonitrile + 0.1% formic acid, pH 3; gradient (min/%B) 0/95 0.1/95 4.6/80 5.5/50 7.0/50 7.1/95 7.2/95 7.3/95 7.4/95 7.5/95 7.6/95 7.7/95 7.8/95 12.50/95 12.65/95; conditions: stereoisomer not certain
Label Yes for high-side LC retention time (at or above 5 min) and No for low-side LC retention time (below it).

Check this molecule for LC retention time at or above 5 min: O=c1[nH]cnc2c1ncn2C1OC(CO)C(O)C1O (configuration not stated)
No

Check this molecule for LC retention time at or above 5 min: CC(=O)NCCCCN
No

Check this molecule for LC retention time at or above 5 min: CNc1ncnc2c1ncn2C1OC(CO)C(O)C1O (configuration not stated)
No

Check this molecule for LC retention time at or above 5 min: CC(=O)Nc1ccc(O)cc1
No

Check this molecule for LC retention time at or above 5 min: C[N+](C)(C)CC(CC(=O)[O-])OC(=O)c1ccccc1 (configuration not stated)
No

Check this molecule for LC retention time at or above 5 min: NCCC(=O)NC(Cc1cnc[nH]1)C(=O)O (configuration not stated)
Yes

Check this molecule for LC retention time at or above 5 min: CCCCCC(=O)OC(CC(=O)[O-])C[N+](C)(C)C (configuration not stated)
No

Check this molecule for LC retention time at or above 5 min: O=C(O)C1CCCN1 (configuration not stated)
No

Check this molecule for LC retention time at or above 5 min: Cn1cnc(CC(N)C(=O)O)c1 (configuration not stated)
Yes
